# credit: ChEMBL document CHEMBL3507680

assay: Human HepG2 cell viability assay in 384 well format; type: toxicity, cell-based; parameters: dose 125 nL, time 70.5 hour; concentration not given beside the values; settings: HepG2 cells, read-out: Inhibition
Value Kind: cytotoxicity at 70.5 h (%)
Write down the numeric answer in % and omit the unit.

Give the reported value of cytotoxicity at 70.5 h for this record: `CS(=O)(=O)NCc1cc2n(n1)CCCN(Cc1cc3ccccc3o1)C2` -5.83

Give the reported value of cytotoxicity at 70.5 h for this record: `CN1C[C@@H](N)C[C@H]1C(=O)N1CCC(CCCc2ccccc2)CC1` -0.968

====

Property: cytotoxicity at 70.5 h; scope: individual compounds
experiment: Human HepG2 cell viability assay in 384 well format; assay type: toxicity, cell-based; set-up: dose 125 nL, time 70.5 hour; concentration not given beside the values; conditions: HepG2 cells, read-out: Inhibition
Write down the numeric answer in % and omit the unit.

Answered examples (3):
O=C(O)c1cc2c(nc1-c1ccncc1)CCN(C1CCOC1)CC2 (configuration not stated) : -4.07
O=C(c1ccccc1F)N1CCCC1Cn1c(=O)oc2ccccc21 (configuration not stated) : -0.201
Cc1nc2[nH]cnc(NCCCN3CCOCC3)c-2n1 : -6.34

Give the reported value of cytotoxicity at 70.5 h for this record: `COc1ccc(-n2cc(CNC(=O)c3cscn3)nn2)cc1` -17.7
